Attribution: patent US20210032312A1

- study.target: T1, cynomolgus monkey CD8A on primary cynomolgus monkey CD8+ T cells (cynomolgus monkey, UniProt P01732 23-235 (human entry))
- T1 construct: also called Cyno CD8alpha
- T1 sequence (P01732 other isoform, or with tags, fused parts or gaps limits assumed): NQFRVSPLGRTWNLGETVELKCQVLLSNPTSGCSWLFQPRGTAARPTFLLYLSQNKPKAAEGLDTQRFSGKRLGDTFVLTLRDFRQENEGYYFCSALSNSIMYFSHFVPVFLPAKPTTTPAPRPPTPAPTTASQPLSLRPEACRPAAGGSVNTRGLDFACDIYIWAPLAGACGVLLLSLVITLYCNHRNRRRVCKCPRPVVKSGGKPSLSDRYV
- protocol.details: flow cytometry, cyno CD8+ T cells, 0.2 uM FN3
- Experimental: Binding of the 190 ELISA hits to human and cynomologous monkey primary CD8 T cells was assessed by flow cytometry. The FN3 domain molecules were diluted to 2 μM and 0.2 μM in PBS and incubated with human or cynomologous monkey CD8+ T cells in 96-well format. […] Cells were gating on live cells and median fluorescence intensity of the bound Centyrins (PE channel) was calculated using Cytobank software.
reported.property: Cyno T-cell Binding 0.2 uM (MFI)

Solved entries:
binder	unit.tag	Cyno T-cell Binding 0.2 uM (MFI)
P282ER9P1360_C4 (designed binder, FN3 domain) LPAPKNLVVSRVTEDSARLSWTAPDAAFDSFGITYYEPNHGGEAISLSVPGSERSYDPTGLKPGTEYWVVITGVKGGAPSTPLGAIFTT	MFI	3900
P282DR9P1359_B2 (designed binder, FN3 domain) LPAPKNLVVSRVTEDSARLSWTAPDAAFDSFWIAYTEWPIPYEEAGQEGEAIVLTVPGSERSYDLTGLKPGTEYWVSIYGVKGGPNSQPLSAIFTT	MFI	4470
P282BR9P1357_C4 (designed binder, FN3 domain) LPAPNNLVVSRVTEDSARLSWPFVSQNKPHFDSFLIQYQESEKVGEAIVLTVPGSERSYDLTGLKPGTEYTVSIYGVDVKWEGNRPVASNPLSAIFTT	MFI	7060
P283AR9P1362_A3 (designed binder, FN3 domain) LPAPKNLVVSRVTEDSARLSWKRIDSPFDSFLIQYQESEKVGEAIVLTVPGSERSYDLTGLKPGTEYTVSIYGVDVKYDIDSRPISSNPLSAIFTT	MFI	3530
P283AR9P1362_D2 (designed binder, FN3 domain) LPAPKNLVVSRVTEDSARLSWQRPKSGFFDSFLIQYQESEKVGEAIVLTVPGSERSYDLTGLKPGTEYTVSIYGVDVKYDIDSRPISSNPLSAIFTT	MFI	5330

1. P282AR9P1356_B9 (designed binder, FN3 domain) LPAPKNLVVSRVTEDSARLSWPEGDRPFFDSFLIQYQESEKVGEAIVLTVPGSERSYDLTGLKPGTEYTVSIYGVDVKWEGNRPVASNPLSAIFTT
2. P282DR9P1359_F3 (designed binder, FN3 domain) LPAPKNLVVSRVTEDSARLSWTAPDAAFDSFYITYPEWPVQGEAIVLTVPGSERSYDLTGLKPGTEYWVIIYGVKGGTESEPLSAIFTT
3. P282FR9P1361_F2 (designed binder, FN3 domain) LPAPKNLVVSRVTEDSARLSWTAPDAAFDSFDIWYAEYGYPGEAIVLTVPGSERSYDLTGLKPGTEYDVAISGIKGGPRSYPLSAIFTT
4. P282CR9P1358_F5 (designed binder, FN3 domain) LPAPKNLVVSRVTEDSARLSWTAPDAAFDSFWISYPEWPPDGEAIVLTVPGSERSYDLTGLKPGTEYFVIIWGVKGGETSAPLSAIFTT
Request: List by increasing Cyno T-cell Binding 0.2 uM (MFI). Please list the labels in the order you were asked to rank them.
Result: 3, 2, 1, 4
(3: 462 MFI, 2: 3080 MFI, 1: 5440 MFI, 4: 13700 MFI)
